system: MS2 coat protein; assay: apparent KD of MS2 coat protein, switch OFF state (with FMN for OFF switches, without FMN for ON switches); designed switch direction (-1 OFF switch, 1 ON switch): -1; higher = weaker reporter binding; details: FMN input: 0 or 200 uM; Eterna round: R93 (includes R88 designs)
In this section we review reported apparent KD of MS2 coat protein values for a set of sequences.
All answers are understood in µM, so give the number only.

In: Entry under review: AAAAAUGGAGGAUAUACAUGAGGAUCACCCAUGUGUGGGUAUACUGUGUCGGCGUCAGGUAGAAGGCCAAAAAA [Gilly Gone Silly 28 - Jieux - Exclusion 3] . Reported apparent KD of MS2 coat protein?
Out: 0.121

More entries:
In: Entry under review: AAGAACUGAGGAUAUACUAAAGAAAUGAAAAGAAAGAAAGAACAUGAGGAUCACCCAUGUAGAAGGCAGAAGAA [Ya'ammu Nubwoserre] . Reported apparent KD of MS2 coat protein?
Out: 0.018

In: Entry under review: AACAAGUCAGGAUAUUCGACAAGUAAAUAAGUAAAUCAAAAGAAGAAGGGACAUGAGGAUCACCCAUGUAAAUA [JR_Exc004_Sub401] . Reported apparent KD of MS2 coat protein?
Out: 0.0213

In: Entry under review: CACGUACAUGAGGAUCACCCAUGUUAGGAUAUGCCGGGUAAGAGAAAACUAAAAAUCCGCAGAAGGGACGAAAC [Bilbo Confounded 15 - Jieux - Exclusion 1] . Reported apparent KD of MS2 coat protein?
Out: 0.0338

In: Entry under review: AACUAACAUGAGGAUCACCCAUGUCAGGAUAUGCAAAGAUCGAUCGAACGAUCGAUAAGCAGAAGGGACAAAAA [Amethyst 95] . Reported apparent KD of MS2 coat protein?
Out: 0.0369

In: Entry under review: AUAAUGCGAGGAUAUACAUGAGGAUCACCCAUGUAAAUAAAUAGGAGAGCCACAUUAAGUAGAAGGUGCAUUAA [JR_Exc003_Sub501] . Reported apparent KD of MS2 coat protein?
Out: 0.0847
